- System: PTP1B mRNA
- experimentalProtocol: Dose response for human PTP1B in HuVEC cells, Primer Probe Set 3000 (Example 25, Table 87)
- Type: cell-based
- appliedConditions: PPS 3000, 3.33 nM
Strand notation (5' to 3'): a small letter for the sugar, then the base; units joined by * are phosphorothioate-linked, units joined directly phosphodiester-linked; [ ] holds rarer units or linkages, { } end groups; capitals alone tell only the bases. e = 2'-O-(2-methoxyethyl) (MOE); [5mC] = 5-methylcytosine; d = 2'-deoxy (DNA)
measuredQuantity: % Inhibition of PTP1B mRNA (%)

substance	measuredQuantity	val
399315 (antisense eG*eG*d[5mC]*dA*dA*d[5mC]*dT*dT*d[5mC]*dA*dA*d[5mC]*e[5mC]*eT) [compound 399315]	% Inhibition of PTP1B mRNA	25
399132 (antisense eG*eG*dG*d[5mC]*dT*dG*dA*dG*dT*dG*dA*d[5mC]*e[5mC]*e[5mC]) [compound 399132]	% Inhibition of PTP1B mRNA	26
398105 (antisense eT*eG*d[5mC]*dA*d[5mC]*dA*dG*dG*d[5mC]*dA*dG*dG*eT*eT) [compound 398105]	% Inhibition of PTP1B mRNA	35
399113 (antisense eG*eT*dT*dA*dG*dG*d[5mC]*dA*dA*dA*dG*dG*eG*e[5mC]) [compound 399113]	% Inhibition of PTP1B mRNA	9
398173 (antisense e[5mC]*dA*dG*d[5mC]*d[5mC]*dT*dG*dG*dG*d[5mC]*dA*e[5mC]) [compound 398173]	% Inhibition of PTP1B mRNA	18
399173 (antisense eA*eT*dG*d[5mC]*dT*dA*dG*dT*dG*d[5mC]*dA*d[5mC]*eT*eA) [compound 399173]	% Inhibition of PTP1B mRNA	11
399301 (antisense eG*eT*dG*dT*dG*d[5mC]*dA*d[5mC]*dA*d[5mC]*dA*dG*e[5mC]*eT) [compound 399301]	% Inhibition of PTP1B mRNA	65
399276 (antisense eG*eA*dG*dG*dT*dA*dT*d[5mC]*d[5mC]*d[5mC]*dA*dT*e[5mC]*eT) [compound 399276]	% Inhibition of PTP1B mRNA	14
399102 (antisense eG*eA*dA*dG*dT*d[5mC]*dA*d[5mC]*dT*dG*dG*d[5mC]*eT*eT) [compound 399102]	% Inhibition of PTP1B mRNA	9
399208 (antisense eA*eG*d[5mC]*dT*d[5mC]*dG*d[5mC]*dT*dA*d[5mC]*d[5mC]*dT*e[5mC]*eT) [compound 399208]	% Inhibition of PTP1B mRNA	47
398120 (antisense eG*eT*dT*d[5mC]*dA*dA*dG*d[5mC]*dG*dG*d[5mC]*d[5mC]*eT*eA) [compound 398120]	% Inhibition of PTP1B mRNA	35
398112 (antisense e[5mC]*eA*dG*d[5mC]*d[5mC]*dT*dG*dG*d[5mC]*dA*d[5mC]*d[5mC]*eT*eA) [compound 398112]	% Inhibition of PTP1B mRNA	26
399096 (antisense eT*eG*d[5mC]*dT*d[5mC]*dG*dA*dA*d[5mC]*dT*d[5mC]*d[5mC]*eT*eT) [compound 399096]	% Inhibition of PTP1B mRNA	23
